Recorded growth by entry
# Tested on: NCI-H322M lung
# assaySummary: NCI-60 one-dose screen, 48 h (100 = growth as untreated, 0 = no growth, -100 = all killed)
# runParameters: 10 µM unless noted
The panel holds about 83,000 compounds, 20% with a hit somewhere; the sample as a whole holds those more often.
readoutLabel: growth (%)

In [3]: df
Out[3]:
                                    compound  readoutlabel  recordedmeasurement
 0          COc1ccc2c(c1)nnc1c3cccnc3[nH]c21        growth                 43.3
 1     Cn1c(I)c(C#C[Si](C)(C)C)c(=O)[nH]c1=O        growth                  115
 2  Cc1cccc(NC(=O)CCc2ccc(N3C(N)=NC(N)=NC3(C)C)cc2)c1        growth                 42.7
 3  O=C(Nc1ccc(-n2ccc3c(NC(=O)c4ccccc4)nccc32)cc1)c1ccc(Cl)c(C(F)(F)F)c1        growth                 66.1
 4  C[C@H]1C=C(C[C@@H](O)CC#CC#CCCCCC[C@@H](O)[C@H]2CCC(=O)O2)C(=O)O1        growth                  114
 5  O=C(Nc1ccc(-n2ccc3c(NC(=O)c4ccccc4)ncnc32)cc1)c1cccc(C(F)(F)F)c1        growth                 62.9
 6  Cc1ccc(/C=C2/C(=O)Nc3cc(Cl)c(-c4csc(N)n4)cc32)cc1        growth                 81.4
 7  FC(F)(F)c1cccc([Si](F)(c2cccc(C(F)(F)F)c2)c2cccc(C(F)(F)F)c2)c1        growth                   91
 8  N#CC1=C(N)Oc2c(ccc3ccccc23)C1c1cc(=O)oc2ccc(Cl)cc12 (stereo not drawn)        growth                 44.2
 9          N#CC(C#N)=C(C#N)c1c[nH]c2ccccc12        growth                  110
10  Clc1ccc2c(NCCNc3nc(Cl)nc4ccccc34)ccnc2c1        growth                -26.4
11  CN1CCN(CC(=O)N(C)c2ccc(N=C(c3ccccc3)c3c(O)[nH]c4ccc(C#N)cc34)cc2)CC1        growth                 37.7
12     Nc1ccc(S(=O)(=O)Nc2ccnn2-c2ccccc2)cc1        growth                   95

---

# System: SF-295 CNS
# assaySummary: NCI-60 one-dose screen, 48 h (100 = growth as untreated, 0 = no growth, -100 = all killed)
# runParameters: 10 µM unless noted
# Method: Cells are grown in 96 well plates and exposed to the test compound for 48 hours. Compounds are tested at a single concentration, which is 10^-5 M for most compounds. The reported endpoint is percent growth (GI% or GIPRCNT), where numbers from 0 - 100% represent growth inhibition, and numbers from -100% - 0 represent cell death. For example, a value of 40 represents 60% growth inhibition. A value of 0 means no net growth occurred over the course of the experiment. […]
About 83,000 compounds went through this panel and 20% of them were active in at least one assay; those are over-represented in the sample as a whole.
readoutLabel: growth (%)

                                    molecule  subjectoftest  readoutlabel  resultunit  recordedmeasurement
 0  COc1cc(/C=C/C(=O)c2ccc(Oc3ncnc4ccccc34)cc2)cc(OC)c1OC     SF-295 CNS        growth           %                 86.7
 1        CC(=O)Oc1ccc(C(OC(C)=O)OC(C)=O)cc1     SF-295 CNS        growth           %                 99.1
 2  COc1ccc(C(=O)NC(=O)Nc2ccc3c(c2)NC(=O)/C3=C\c2[nH]c(C)c(C(=O)O)c2C)c(F)c1     SF-295 CNS        growth           %                 33.1
 3  Nc1ncnc2c1c(C(F)(F)F)cn2[C@@H]1O[C@H](CO)[C@@H](O)[C@H]1O     SF-295 CNS        growth           %                 7.79
 4  CCN(CC)CCNc1ccc([N+](=O)[O-])c2sc3cc(Cl)ccc3c(=O)c12     SF-295 CNS        growth           %                 43.9
 5  CC(C(C(=O)N1CCCCC1)N1CCCCC1)N1CCCCC1 (centres undefined)     SF-295 CNS        growth           %                  117
 6  CC(C)CNCC(=O)Nc1ccc(Cc2ccc(NC(=O)CNCC(C)C)cc2)cc1     SF-295 CNS        growth           %                 78.5
 7  CC1=C[S+](c2ccccc2)c2cccc3cc4ccccc4c1c23 (centres undefined)     SF-295 CNS        growth           %               -0.638
 8  Cn1cnc([N+](=O)[O-])c1N1c2ccncc2Sc2ccncc21     SF-295 CNS        growth           %                 86.7
 9               Cc1cccc[n+]1CCC[n+]1ccccc1C     SF-295 CNS        growth           %                  103
10      Nc1nc(Cl)cc(NCCCCNc2cc(Cl)nc(N)n2)n1     SF-295 CNS        growth           %                  121
11  Nn1c(CN2CCN(c3cc4c(cc3F)c(=O)c(C(=O)O)cn4C3CC3)CC2)n[nH]c1=S     SF-295 CNS        growth           %                  102
12                                Cc1nssc1=S     SF-295 CNS        growth           %                 99.7
13  O=C(O)c1ccc(-n2cc(/C=N/Nc3ccccc3F)c(-c3ccc(O)cc3)n2)cc1     SF-295 CNS        growth           %                 80.5

---

# System: ACHN renal
# assaySummary: NCI-60 one-dose screen, 48 h (100 = growth as untreated, 0 = no growth, -100 = all killed)
# runParameters: 10 µM unless noted
The panel holds about 83,000 compounds, 20% with a hit somewhere; the sample as a whole holds those more often. Active and inactive are the calls of the source. Rule for the calls: active = growth percent below 10; inactive = the rest.
readoutLabel: growth

>>> df
                                   compound  readoutlabel  recordedmeasurement
0  COc1ccc(-c2nn(-c3ccc(NC(=O)c4ccc(Cl)c(C(F)(F)F)c4)cc3)cc2-c2ccncc2)cc1Cl        growth     27.3% (inactive)
1  CCOC(=O)CSc1nnc(-c2cc3c([nH]c4ccccc43)c(-c3cccc(O)c3)n2)n1-c1ccc(C)cc1        growth     50.4% (inactive)
2  O=c1c2ccccc2sc2c(NCCN3CCOCC3)nc3ccccc3c12        growth     43.5% (inactive)
3  C=C1C(=O)O[C@H]2[C@H]1CC/C(COC(=O)c1cccc3ccccc13)=C\CC[C@@]1(C)O[C@@H]21        growth       -100% (active)
4      COc1ccc(-c2coc3c(CO)c(O)ccc3c2=O)cc1        growth     20.8% (inactive)
5  CC(C)(C)NC(C1=CC(C)(C)c2ccccc2C1=O)c1ccccc1 (configuration not stated)        growth      -10.5% (active)
6  CCC1(C(N)=O)CC2C=CC1CC2 (configuration not stated)        growth      107% (inactive)

---

# Test system: MDA-MB-435 melanoma
# assaySummary: NCI-60 one-dose screen, 48 h
# runParameters: 10 µM unless noted
The panel holds about 83,000 compounds, 20% with a hit somewhere; the sample as a whole holds those more often. The source made the active and inactive calls. How the source made its calls: active means growth percent below 10; inactive means the rest.
Outcomes: active, inactive

                                    compound  classlabel
 0          O=C(NC(=S)Nc1ccc(Cl)cc1)c1ccccc1    inactive
 1  NS(=O)(=O)c1ccc(-n2nc(-c3ccc(Cl)cc3)ccc2=O)cc1    inactive
 2    NC(=NCCCOc1ccc(F)cc1)Nc1ccc(Cl)c(Cl)c1    inactive
 3  COc1ccc2c(c1)OC(N)=C(C#N)C2c1ccc(F)cc1 (stereo unspecified)      active
 4  CC(C)(C)NC(C1=CC(C)(C)c2ccccc2C1=O)c1ccccc1 (stereo unspecified)      active
 5  Cc1cn([C@]2(CF)O[C@H](CO)C2C)c(=O)[nH]c1=O (stereo partly specified)    inactive
 6  C[C@@H]1CC2C3C[C@H](F)C4=CC(=O)C=C[C@]4(C)[C@@]3(F)[C@@H](O)C[C@]2(C)[C@@]1(O)C(=O)CO (stereo partly specified)    inactive
 7  COc1cccc(/C=N/C(=S)NC2(C)C3CCC(C3)C2(C)C)c1O (stereo unspecified)    inactive
 8  CCCCNC(=O)Oc1ccc(/C(=C(/CC)Cc2ccccc2)c2ccc(OCCCN(C)C)cc2)cc1    inactive
 9   Nc1nc(Cl)c2c(C(F)(F)F)cn(CC3CCNCC3)c2n1    inactive
10  COc1ccc(Cl)cc1NC(=O)c1cc2c(n1C)-c1nc(NC(=O)C(C)C)sc1CC2    inactive
11  Nc1ncnc2c1ccn2-c1cccc(NC(=O)c2cccc(C(F)(F)F)c2)c1    inactive
12                   Cn1c2ccccc2c2ssc(=S)c21    inactive
13  O=C(CSc1nnc(-c2ccc(Cl)cc2)o1)Nc1ccc(C(=O)/C=C/c2ccccc2)cc1    inactive
14  CC(=O)c1cc2c(c(O)c1C)C(=O)C(=O)c1c(O)cccc1-2      active
15  [2H]c1nc(Nc2ncc(F)c(-c3cc(F)c4nc(C)n(C(C)C)c4c3)n2)c([2H])c([2H])c1CN1CCN(CC)CC1    inactive
16       CN(C)C(=O)Nc1nc2cc(Cl)c(Cl)cc2[nH]1      active
17        S=c1[nH]nc(Cn2c3ccccc3c3ccncc32)o1    inactive
18  CC(Cl)(CCl)CS(=O)(=O)c1ccc(Cl)cc1 (stereo unspecified)    inactive
19   Cc1c(Cl)ccc2c(C(=O)Cl)cc(-c3ccccc3)nc12    inactive
20  C=C1C(=O)O[C@H]2[C@H]1CC/C(COC(=O)CCCC(=O)OC/C1=C/CC[C@@]3(C)O[C@H]3[C@H]3OC(=O)C(=C)[C@@H]3CC1)=C\CC[C@@]1(C)O[C@@H]21      active
21   Cc1ccc(-c2cn3cc([N+](=O)[O-])ccc3n2)cc1    inactive
22  COc1cc2ncnc(Oc3ccc(NC(=O)Nc4ccc(CN5CCOCC5)c(C(F)(F)F)c4)c4ccccc34)c2cc1OC      active
23  CC(=O)N1N=C(CCC(=O)c2nc3ccc([N+](=O)[O-])cc3[nH]2)OC1c1ccc(O)cc1 (stereo unspecified)    inactive
24       CCCCOc1c(N)cc(Cl)cc1C(=O)OCCN(CC)CC    inactive
25      Cc1cc2c(cc1C)N(C(=O)CCl)CCN2C(=O)CCl      active
26  O=C1c2ccccc2OC=C(c2ccccc2)N1CCCCNc1ccc(F)cc1    inactive
27  Cc1cn(-c2nc3c(c(NCc4ccccc4)n2)COCC3)c2cccc(C(N)=O)c12    inactive
28  COc1cc(/C=C/C(=O)c2ccc(Oc3ncnc4ccccc34)cc2)cc(OC)c1OC    inactive
29  O=C(N/N=C1\SCC(=O)N1c1ccccc1)c1cc(-c2cc3ccccc3o2)nn1-c1ccccc1    inactive
30  CC1OC(n2c3ccccc3c3c4c(c5c6ccccc6[nH]c5c32)C(=O)N(CCN[C@@H]2CCC[C@H]2N)C4=O)CC(O)C1O (stereo partly specified)    inactive
